Entry source: patent US10703843B2

Solubility (wt %) in PECA values by entry
Experiment: Measured solubilities of ECA and PECA in solvents and of solvents in PECA
Conditions: solubility of the listed solvent in PECA; ±10%
// note: answer is a bare numeric in wt %

CCCCCCC = 0.4

Task item: // Solubility (wt %) in PECA lookup, key: `CCCCC`
Reply: 0.8

----------
Assay: Measured solubilities of ECA and PECA in solvents and of solvents in PECA
Details: solubility of ECA in the listed solvent; ±10%
Solubility (wt %) ECA in values by entry
// note: answer is a bare numeric in wt %

CCCCC = 11.4

Task item: // Solubility (wt %) ECA in lookup, key: `CCCCCCC`
Reply: 7.5

----------
Solubility (wt %) PECA in values by entry
Assay: Measured solubilities of ECA and PECA in solvents and of solvents in PECA
Details: solubility of PECA in the listed solvent; ±10%
// note: answer is a bare numeric in wt %

Some compounds with recorded Solubility (wt %) PECA in:
CCCCC = 0.11
CCOCC = 0.10

# evaluate next
Task item: // Solubility (wt %) PECA in lookup, key: `CCCCCCC`
Reply: 0.05

----------
Assay: Measured solubilities of ECA and PECA in solvents and of solvents in PECA
Conditions: solubility of ECA in the listed solvent; ±10%
metric: Solubility (wt %) ECA in

CC(C)=O [acetone] = miscible
CCOCC [diethyl ether] = miscible
COCCOC [1,2-dimethoxyethane] = miscible
